# Measured on: T1, human PD-L1 expressed on cells (human, UniProt Q9NZQ7 19-290)
# T1 construct: whole, on cells; One entry covers all human PD-L1-bearing cells; also called huPD-L1 on CHO cells (CHO-hPD-L1); PD-L1 on A431 cells
# Test: flow cytometry, PD-L1-expressing CHO cells, MFI (FITC)
Quantity: EC50 (µg/mL)
Your answer should be a plain number; it is taken to be in µg/mL.

INPUT: Look at this binder and give its reported EC50. 1P9-EKO-IR700 conjugate (antibody, V domains shown, IRDye 700DX (IR700) attached via NHS ester; sites not stated; IRDye 700DX (IR700) attached via NHS ester; sites not stated; DAR 2.5 per antibody, also called 1P9-EKO (conjugate); anti-PD-L1-IR700 conjugate with effector knock-out Fc region) VH: EVQLVESGGGLVQPGGSLRLSCAASGFTFSTYWMSWVRQAPGKGLEWVANIKQDGGERYYVDSVKGRFTISRDNAKSSLYLQMNSLRAEDTALYYCARLRLYSDYEDYWGQGTLVTVSS VL: DIQMTQSPSSVSASVGDRVTITCRASQGISSWLAWYQQKPGKAPKLLIYSVSSLQSGVPSRFSGSGSGTDFTLTISSLQPEDSATYYCQQANSLPPTFGGGTKVEIK
OUTPUT: 0.0174

INPUT: Look at this binder and give its reported EC50. 1P9 with effector knockout mutations L234F/L235E/P331S (antibody, V domains shown, Same variable regions as 1P9; also called 1P9-EKO; 1P9 (L234F/L235E/P331S)) VH: EVQLVESGGGLVQPGGSLRLSCAASGFTFSTYWMSWVRQAPGKGLEWVANIKQDGGERYYVDSVKGRFTISRDNAKSSLYLQMNSLRAEDTALYYCARLRLYSDYEDYWGQGTLVTVSS VL: DIQMTQSPSSVSASVGDRVTITCRASQGISSWLAWYQQKPGKAPKLLIYSVSSLQSGVPSRFSGSGSGTDFTLTISSLQPEDSATYYCQQANSLPPTFGGGTKVEIK
OUTPUT: 0.0186

INPUT: Look at this binder and give its reported EC50. 1P9 (antibody, V domains shown, Recombinant full-length human antibody expressed in CHO K1 GS KO cells, with wild-type human Fc; also called anti-PD-L1 antibody 1P9; Unconj; 1P9) VH: EVQLVESGGGLVQPGGSLRLSCAASGFTFSTYWMSWVRQAPGKGLEWVANIKQDGGERYYVDSVKGRFTISRDNAKSSLYLQMNSLRAEDTALYYCARLRLYSDYEDYWGQGTLVTVSS VL: DIQMTQSPSSVSASVGDRVTITCRASQGISSWLAWYQQKPGKAPKLLIYSVSSLQSGVPSRFSGSGSGTDFTLTISSLQPEDSATYYCQQANSLPPTFGGGTKVEIK
OUTPUT: 0.0199

INPUT: Look at this binder and give its reported EC50. 1P9-IR700 (antibody, V domains shown, IRDye 700DX (IR700) attached via NHS ester; sites not stated; IRDye 700DX (IR700) attached via NHS ester; sites not stated; DAR 2.5 per antibody, also called 1P9-IR700 conjugate; anti-PD-L1-IR700 conjugate) VH: EVQLVESGGGLVQPGGSLRLSCAASGFTFSTYWMSWVRQAPGKGLEWVANIKQDGGERYYVDSVKGRFTISRDNAKSSLYLQMNSLRAEDTALYYCARLRLYSDYEDYWGQGTLVTVSS VL: DIQMTQSPSSVSASVGDRVTITCRASQGISSWLAWYQQKPGKAPKLLIYSVSSLQSGVPSRFSGSGSGTDFTLTISSLQPEDSATYYCQQANSLPPTFGGGTKVEIK
OUTPUT: 0.0156
